The measurements presented in this section are drawn from patent US20230286970A1.

Some compounds, each annotated with its measured IC50.
Target: recombinant human HDAC1 (Homo sapiens (Human))
Sequence (Q13547 whole entry): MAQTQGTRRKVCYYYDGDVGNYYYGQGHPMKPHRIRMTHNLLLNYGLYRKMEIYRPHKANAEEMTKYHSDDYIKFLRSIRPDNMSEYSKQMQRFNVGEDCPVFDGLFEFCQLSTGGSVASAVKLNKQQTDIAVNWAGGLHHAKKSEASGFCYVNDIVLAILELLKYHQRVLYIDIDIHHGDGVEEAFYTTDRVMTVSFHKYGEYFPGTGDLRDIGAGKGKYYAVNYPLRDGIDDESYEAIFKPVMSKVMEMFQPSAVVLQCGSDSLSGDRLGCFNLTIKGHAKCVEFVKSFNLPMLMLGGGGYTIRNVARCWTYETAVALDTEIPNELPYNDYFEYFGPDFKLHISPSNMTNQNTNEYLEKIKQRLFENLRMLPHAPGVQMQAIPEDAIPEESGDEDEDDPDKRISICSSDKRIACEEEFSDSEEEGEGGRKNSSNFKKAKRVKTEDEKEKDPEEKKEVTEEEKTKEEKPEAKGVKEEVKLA
Assay: Enzymatic screening, HDAC1 inhibition (fluorogenic FdL_G substrate)
Method: For each test compound, 100× concentrated DMSO solutions at 8 doses were prepared and then diluted in assay buffer (25 mM Tris-HCl, pH 8, 130 mM NaCl, 0.05% Tween-20, 10% Glycerol) to obtain 5× concentrated solutions in relation to the final concentrations (typical final concentration range—6.4-200000 nM or 0.18-50000 nM, final DMSO content—1%). […]

Example entries and their recorded answers appear below.
1) O=C(Nc1cccc(-c2cnn(Cc3ccc(-c4nnc(C(F)F)o4)cc3)c2)c1)N1CCOCC1 [compound 227]
> 200 µM
2) [2H]C([2H])(c1ccc(-c2nnc(C(F)F)o2)cc1F)n1cc(-c2ccc3nc(N)sc3c2)nn1 [compound 382]
> 1000 µM
3) O=C1NCc2ccc(-c3cn(Cc4ccc(-c5nnc(C(F)F)o5)cc4)cn3)cc21 [compound 294]
> 200 µM
4) Cn1c(N)nc2cc(-c3cnn(Cc4ccc(-c5nnc(C(F)F)o5)cc4)c3)ccc21 [compound 321]
> 1000 µM
5) Fc1cc(-c2nnc(C(F)F)o2)cc(F)c1Cn1cc(-c2cnc3cccnn23)nn1 [compound 67]
> 200 µM

Test system recombinant human HDAC1 (Homo sapiens (Human)); read-out IC50; what value for NC(=O)c1cccc(-c2nnn(Cc3c(F)cc(-c4nnc(C(F)F)o4)cc3F)n2)c1 [compound 54] ?
> 200 µM

Test system recombinant human HDAC1 (Homo sapiens (Human)); read-out IC50; what value for FC(F)c1nnc(-c2ccc(Cn3nnc(-c4cccc(-c5cnc(N6CCOCC6)s5)c4)n3)nc2)o1 [compound 130] ?
> 200 µM

Test system recombinant human HDAC1 (Homo sapiens (Human)); read-out IC50; what value for O=C(Nc1cc(-c2nnn(Cc3ccc(-c4nnc(C(F)F)o4)cc3)n2)ccc1Sc1ccccc1)N1CCOCC1 [compound 258] ?
> 200 µM

Test system recombinant human HDAC1 (Homo sapiens (Human)); read-out IC50; what value for CN1CCN(C(=O)Nc2cccc(-c3cn(Cc4ccc(-c5nnc(C(F)F)o5)cc4)nn3)c2)CC1 [compound 146] ?
> 200 µM

Test system recombinant human HDAC1 (Homo sapiens (Human)); read-out IC50; what value for NCc1ccc(-c2cn(Cc3ccc(-c4nnc(C(F)F)o4)cc3)nn2)cn1 [compound 155] ?
> 200 µM
